# testName: Cyclic voltammetry / linear sweep voltammetry, electrochemical parameters
# Assay type: physicochemical
# conditionNotes: pH 13 (KOH 0.1 M), 100 mV/s, third cycle
testReadout: Peak-to-peak separation ΔEp (mV)
// return numeric value only (unit: mV, not printed)

Before answering, review these 6 worked examples.
>  <inputSmiles>
O=C(O)CCCOc1ccc(OCCCC(=O)O)c2c1C(=O)c1ccccc1C2=O

>  <measureUnit>
mV

>  <assayResult>
267

$$$$
>  <inputSmiles>
O=C1c2ccccc2C(=O)c2c(OCCCS(=O)(=O)O)ccc(OCCCS(=O)(=O)O)c21

>  <measureUnit>
mV

>  <assayResult>
246

$$$$
>  <inputSmiles>
O=C1c2ccccc2C(=O)c2c(OCCCS(=O)(=O)O)ccc(O)c21

>  <measureUnit>
mV

>  <assayResult>
97

$$$$
>  <inputSmiles>
O=C1c2ccccc2C(=O)c2c(OCCCCS(=O)(=O)O)ccc(O)c21

>  <measureUnit>
mV

>  <assayResult>
97

$$$$
>  <inputSmiles>
O=C1c2ccccc2C(=O)c2c(OCCCCS(=O)(=O)O)ccc(OCCCCS(=O)(=O)O)c21

>  <measureUnit>
mV

>  <assayResult>
390

$$$$
>  <inputSmiles>
O=C(O)CCCCOc1ccc(OCCCCC(=O)O)c2c1C(=O)c1ccccc1C2=O

>  <measureUnit>
mV

>  <assayResult>
328

$$$$

Okay, now this compound:
Reported Peak-to-peak separation ΔEp for O=C(O)CCCOc1ccc(O)c2c1C(=O)c1ccccc1C2=O was 140

---

# testName: Solubility in aqueous solution at various pH by shake-flask method
# conditionNotes: aqueous H2SO4 1M solution, pH 0, aqueous buffer, thermodynamic from solid
testReadout: solubility (mM)
Express your answer in mM, writing the number without its unit.

>  <inputSmiles>
O=C1c2ccccc2C(=O)c2c(OCCCS(=O)(=O)O)ccc(O)c21

>  <assayResult>
460

$$$$

Now take the following compound into account.
The reported value for O=C(O)CCCOc1ccc(O)c2c1C(=O)c1ccccc1C2=O in terms of solubility is 310
